- Protocol Notes: Pharmacokinetic study in dogs
- Assay type: in vivo, male Beagle dog
- Experimental Setup: male, beagle, plasma; dog, PO 5 mg/kg
Metric: Tmax (min)
Answer format: numeric, min implied, no suffix.

Qu. Requested field: Tmax. Item: CCN(CC)C(=O)C(c1ccccc1)N1CCN(c2ccc(NC(=O)c3ccccc3-c3cccnc3)cc2F)CC1 (racemic) [Cmpd (A)]
Ans. 49.8

====

- Assayed System: human Y2 receptor (Homo sapiens, UniProt P49146)
- Construct: KAN-Ts endogenously expressing Y2 receptors were used; endogenous in cells; host or cells: KAN-Ts cells
- Protocol Notes: Neuropeptide Y2 radioligand binding assay, [125I]PYY, KAN-Ts cells
- Experimental Setup: KANT-S cells, mean ± S.E.M., read-out: hY2 pKi (converted)
Metric: Ki (nM)
Answer format: numeric, nM implied, no suffix.

Answered examples (5):
>  <Compound>
CCN(CC)C(=O)C(c1ccccc1)N1CCN(c2ccc(NC(=O)c3ccccc3-c3ccccc3)cc2F)CC1 (stereo not shown) [Cmpd (C)]

>  <Assayed System>
human Y2 receptor (Homo sapiens, UniProt P49146)

>  <Ki [nM]>
7.59

$$$$
>  <Compound>
CCN(CC)C(=O)C(c1ccccc1)N1CCN(c2ccc(NC(=O)c3ccccc3-c3cccnc3)cc2F)CC1 (single isomer, unassigned; (+)) [(+)-Cmpd (A)]

>  <Assayed System>
human Y2 receptor (Homo sapiens, UniProt P49146)

>  <Ki [nM]>
7.94

$$$$
>  <Compound>
CCNC(=O)C(c1ccccc1)N1CCN(c2ccc(NC(=O)c3ccccc3-c3cccnc3)cc2F)CC1 (single isomer, unassigned; (+)) [(+)-Cmpd (B)]

>  <Assayed System>
human Y2 receptor (Homo sapiens, UniProt P49146)

>  <Ki [nM]>
229

$$$$
>  <Compound>
CCNC(=O)C(c1ccccc1)N1CCN(c2ccc(NC(=O)c3ccccc3-c3cccnc3)cc2F)CC1 (racemic) [Cmpd (B)]

>  <Assayed System>
human Y2 receptor (Homo sapiens, UniProt P49146)

>  <Ki [nM]>
32.4

$$$$
>  <Compound>
CCNC(=O)C(c1ccccc1)N1CCN(c2ccc(NC(=O)c3ccccc3-c3cccnc3)cc2F)CC1 (single isomer, unassigned; (-)) [(−)-Cmpd (B)]

>  <Assayed System>
human Y2 receptor (Homo sapiens, UniProt P49146)

>  <Ki [nM]>
39.8

$$$$

Qu. Requested field: Ki. Item: CCN(CC)C(=O)C(c1ccccc1)N1CCN(c2ccc(NC(=O)c3ccccc3-c3cccnc3)cc2F)CC1 (single isomer, unassigned; (-)) [(−)-Cmpd (A)]
Ans. 3.16

Qu. Requested field: Ki. Item: CCN(CC)C(=O)C(c1ccccc1)N1CCN(c2ccc(NC(=O)c3ccccc3-c3cccnc3)cc2F)CC1 (racemic) [Cmpd (A)]
Ans. 5.5

====

- Protocol Notes: Pharmacokinetic study in rats
- Format: in vivo
- Experimental Setup: whole blood; rat, PO 10 mg/kg
Metric: bioavailability (%)
Answer format: numeric, % implied, no suffix.

Qu. Requested field: bioavailability. Item: CCN(CC)C(=O)C(c1ccccc1)N1CCN(c2ccc(NC(=O)c3ccccc3-c3cccnc3)cc2F)CC1 (racemic) [Cmpd (A)]
Ans. 6

====

- Protocol Notes: Pharmacokinetic study in rats
- Format: in vivo
- Experimental Setup: rat, whole blood, iv, read-out: Vz
Metric: Vd

Qu. Requested field: Vd. Item: CCN(CC)C(=O)C(c1ccccc1)N1CCN(c2ccc(NC(=O)c3ccccc3-c3cccnc3)cc2F)CC1 (racemic)
Ans. 1.07 L/kg

====

- Protocol Notes: Pharmacokinetic study in dogs
- Format: in vivo, male Beagle dog
- Experimental Setup: male, beagle, plasma; dog, PO 5 mg/kg
Metric: AUC(0-t) (µM·h)
Answer format: numeric, µM·h implied, no suffix.

Qu. Requested field: AUC(0-t). Item: CCN(CC)C(=O)C(c1ccccc1)N1CCN(c2ccc(NC(=O)c3ccccc3-c3cccnc3)cc2F)CC1 (racemic) [Cmpd (A)]
Ans. 2.73

====

- Assayed System: hY2 (Homo sapiens)
- Construct: KAN-Ts endogenously expressing Y2 receptors were used; endogenous in cells; host or cells: KAN-Ts cells stably expressing chimeric G proteins
- Sequence (P49146 whole entry): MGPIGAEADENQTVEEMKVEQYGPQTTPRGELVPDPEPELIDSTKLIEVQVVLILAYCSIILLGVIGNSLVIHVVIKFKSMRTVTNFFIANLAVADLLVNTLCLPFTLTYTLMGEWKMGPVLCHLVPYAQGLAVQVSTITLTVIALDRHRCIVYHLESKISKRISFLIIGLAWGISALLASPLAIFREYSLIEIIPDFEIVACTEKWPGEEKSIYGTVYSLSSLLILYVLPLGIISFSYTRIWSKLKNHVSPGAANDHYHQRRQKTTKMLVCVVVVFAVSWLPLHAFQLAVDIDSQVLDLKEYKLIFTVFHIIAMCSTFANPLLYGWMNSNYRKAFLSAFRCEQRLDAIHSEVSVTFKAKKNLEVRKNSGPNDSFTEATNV
- Protocol Notes: Ca2+ mobilization assay (FLIPR) in KAN-Ts cells
- Type: cell-based
- Experimental Setup: KANT-S cells, inhibition of PYY stimulated Ca2+ increase, read-out: hY2 pKB (converted)
Metric: log10 Kb (log10 of the value in nM)
Field: value | Transform: log10 | Quantity: Kb | Unit: nM

>  <Molecule>
CCN(CC)C(=O)C(c1ccccc1)N1CCN(c2ccc(NC(=O)c3ccccc3-c3cccnc3)cc2F)CC1 (racemic) [Cmpd (A)]

>  <Assayed System>
hY2 (Homo sapiens)

>  <Metric>
log10 Kb

>  <Number>
0.43

$$$$
>  <Molecule>
CCN(CC)C(=O)C(c1ccccc1)N1CCN(c2ccc(NC(=O)c3ccccc3-c3cccnc3)cc2F)CC1 (single isomer, unassigned; (-)) [(−)-Cmpd (A)]

>  <Assayed System>
hY2 (Homo sapiens)

>  <Metric>
log10 Kb

>  <Number>
-0.10

$$$$
>  <Molecule>
CCN(CC)C(=O)C(c1ccccc1)N1CCN(c2ccc(NC(=O)c3ccccc3-c3ccccc3)cc2F)CC1 (centres unmarked)

>  <Assayed System>
hY2 (Homo sapiens)

>  <Metric>
log10 Kb

>  <Number>
0.80

$$$$
>  <Molecule>
CCN(CC)C(=O)C(c1ccccc1)N1CCN(c2ccc(NC(=O)c3ccccc3-c3cccnc3)cc2F)CC1 (single isomer, unassigned; (+)) [(+)-Cmpd (A)]

>  <Assayed System>
hY2 (Homo sapiens)

>  <Metric>
log10 Kb

>  <Number>
-0.40

$$$$

Qu. State its log10 Kb on hY2 (Homo sapiens): CCNC(=O)C(c1ccccc1)N1CCN(c2ccc(NC(=O)c3ccccc3-c3cccnc3)cc2F)CC1 (racemic)
Ans. 1.70

====

- Protocol Notes: Pharmacokinetic study in dogs
- Format: in vivo, male Beagle dog
- Experimental Setup: male, beagle, plasma; dog, PO 5 mg/kg
Metric: AUC(0-inf) (µM·h)
Answer format: numeric, µM·h implied, no suffix.

Qu. Requested field: AUC(0-inf). Item: CCN(CC)C(=O)C(c1ccccc1)N1CCN(c2ccc(NC(=O)c3ccccc3-c3cccnc3)cc2F)CC1 (racemic)
Ans. 2.79

====

- Protocol Notes: Pharmacokinetic study in dogs
- Type: in vivo, male Beagle dog
- Experimental Setup: male, beagle, dog, plasma, iv, 1 mg/kg, IV 1 mg/kg, read-out: VSS
Metric: Vd (L/kg)
Answer format: numeric, L/kg implied, no suffix.

Qu. Requested field: Vd. Item: CCN(CC)C(=O)C(c1ccccc1)N1CCN(c2ccc(NC(=O)c3ccccc3-c3cccnc3)cc2F)CC1 (racemic) [Cmpd (A)]
Ans. 0.57

====

- Protocol Notes: Pharmacokinetic study in rats
- Assay type: in vivo
- Experimental Setup: whole blood; rat, PO 10 mg/kg
Metric: AUC(0-inf) (µM·h)
Answer format: numeric, µM·h implied, no suffix.

Qu. Requested field: AUC(0-inf). Item: CCN(CC)C(=O)C(c1ccccc1)N1CCN(c2ccc(NC(=O)c3ccccc3-c3cccnc3)cc2F)CC1 (racemic) [Cmpd (A)]
Ans. 0.444

====

- Protocol Notes: Pharmacokinetic study in rats
- Assay type: in vivo
- Experimental Setup: whole blood; rat, SC 10 mg/kg
Metric: Cmax (µM)
Answer format: numeric, µM implied, no suffix.

Qu. Requested field: Cmax. Item: CCN(CC)C(=O)C(c1ccccc1)N1CCN(c2ccc(NC(=O)c3ccccc3-c3cccnc3)cc2F)CC1 (racemic)
Ans. 4.35

====

- Protocol Notes: Pharmacokinetic study in dogs
- Type: in vivo, male Beagle dog
- Experimental Setup: male, beagle, plasma; dog, IV 1 mg/kg
Metric: C0 (µM)
Answer format: numeric, µM implied, no suffix.

Qu. Requested field: C0. Item: CCN(CC)C(=O)C(c1ccccc1)N1CCN(c2ccc(NC(=O)c3ccccc3-c3cccnc3)cc2F)CC1 (racemic) [Cmpd (A)]
Ans. 6.24

====

- Protocol Notes: Pharmacokinetic study in dogs
- Assay type: in vivo, male Beagle dog
- Experimental Setup: male, beagle, plasma; dog, PO 5 mg/kg
Metric: half-life (min)
Answer format: numeric, min implied, no suffix.

Qu. Requested field: half-life. Item: CCN(CC)C(=O)C(c1ccccc1)N1CCN(c2ccc(NC(=O)c3ccccc3-c3cccnc3)cc2F)CC1 (racemic) [Cmpd (A)]
Ans. 59.4

====

- Protocol Notes: Pharmacokinetic study in rats
- Format: in vivo
- Experimental Setup: whole blood; rat, IV
Metric: half-life (min)
Answer format: numeric, min implied, no suffix.

Qu. Requested field: half-life. Item: CCN(CC)C(=O)C(c1ccccc1)N1CCN(c2ccc(NC(=O)c3ccccc3-c3cccnc3)cc2F)CC1 (racemic)
Ans. 17.4

====

- Assayed System: UniProt:P55157
- Sequence (P55157 19-894, species assumed): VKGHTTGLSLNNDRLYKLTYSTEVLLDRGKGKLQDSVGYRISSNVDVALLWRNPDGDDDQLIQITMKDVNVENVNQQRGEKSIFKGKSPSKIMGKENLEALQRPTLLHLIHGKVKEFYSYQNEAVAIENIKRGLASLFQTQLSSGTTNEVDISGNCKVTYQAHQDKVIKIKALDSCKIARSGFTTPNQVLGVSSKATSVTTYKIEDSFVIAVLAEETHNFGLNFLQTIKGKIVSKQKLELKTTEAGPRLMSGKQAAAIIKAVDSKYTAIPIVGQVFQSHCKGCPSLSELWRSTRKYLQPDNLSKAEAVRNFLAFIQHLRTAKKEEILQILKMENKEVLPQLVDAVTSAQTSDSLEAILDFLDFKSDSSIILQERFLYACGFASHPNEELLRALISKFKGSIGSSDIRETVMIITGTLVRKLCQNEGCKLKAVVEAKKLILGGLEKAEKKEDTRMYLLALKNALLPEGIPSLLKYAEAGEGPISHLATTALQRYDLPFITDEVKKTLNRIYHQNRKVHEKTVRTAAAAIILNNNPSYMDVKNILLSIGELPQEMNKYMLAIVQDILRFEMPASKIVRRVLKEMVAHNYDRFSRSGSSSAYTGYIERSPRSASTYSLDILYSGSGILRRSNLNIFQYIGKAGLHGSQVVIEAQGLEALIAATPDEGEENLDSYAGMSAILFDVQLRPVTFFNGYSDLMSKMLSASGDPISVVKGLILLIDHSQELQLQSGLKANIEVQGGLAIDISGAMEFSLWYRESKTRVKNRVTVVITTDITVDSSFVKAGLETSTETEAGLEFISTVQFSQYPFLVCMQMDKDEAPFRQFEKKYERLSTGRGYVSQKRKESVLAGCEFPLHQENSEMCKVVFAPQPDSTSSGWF
- Sequence (P07237 18-508 partner, species assumed): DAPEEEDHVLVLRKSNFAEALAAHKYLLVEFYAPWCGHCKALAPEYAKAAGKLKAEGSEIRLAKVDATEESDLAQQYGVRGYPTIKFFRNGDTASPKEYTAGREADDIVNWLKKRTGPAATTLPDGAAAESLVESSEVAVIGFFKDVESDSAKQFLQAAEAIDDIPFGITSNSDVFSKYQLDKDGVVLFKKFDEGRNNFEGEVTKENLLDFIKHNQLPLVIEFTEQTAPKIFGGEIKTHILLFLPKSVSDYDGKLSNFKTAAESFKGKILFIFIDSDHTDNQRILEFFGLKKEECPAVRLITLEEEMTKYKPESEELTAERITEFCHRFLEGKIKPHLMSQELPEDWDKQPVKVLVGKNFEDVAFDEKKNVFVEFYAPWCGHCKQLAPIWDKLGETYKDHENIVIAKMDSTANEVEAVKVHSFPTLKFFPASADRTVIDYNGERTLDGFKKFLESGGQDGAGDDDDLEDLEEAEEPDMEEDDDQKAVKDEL
- Protocol Notes: MTP assay (triglyceride transfer between vesicles)
- Format: biochemical
- Experimental Setup: read-out: MTP pIC50 (converted)
Metric: log10 of IC50 (log10 of the value in µM)
Field: value | Transform: log10 | Quantity: IC50 | Unit: µM

Answered examples (3):
>  <Compound>
CCNC(=O)C(c1ccccc1)N1CCN(c2ccc(NC(=O)c3ccccc3-c3cccnc3)cc2F)CC1 (single isomer, unassigned; (+)) [(+)-Cmpd (B)]

>  <log10 of IC50>
0.60

$$$$
>  <Compound>
CCN(CC)C(=O)C(c1ccccc1)N1CCN(c2ccc(NC(=O)c3ccccc3-c3cccnc3)cc2F)CC1 (racemic) [Cmpd (A)]

>  <log10 of IC50>
-0.10

$$$$
>  <Compound>
CCN(CC)C(=O)C(c1ccccc1)N1CCN(c2ccc(NC(=O)c3ccccc3-c3ccccc3)cc2F)CC1 (stereo not shown) [Cmpd (C)]

>  <log10 of IC50>
-1.30

$$$$

Qu. Requested field: log10 of IC50. Item: CCN(CC)C(=O)C(c1ccccc1)N1CCN(c2ccc(NC(=O)c3ccccc3-c3cccnc3)cc2F)CC1 (single isomer, unassigned; (+)) [(+)-Cmpd (A)]
Ans. -0.50

Qu. Requested field: log10 of IC50. Item: CCNC(=O)C(c1ccccc1)N1CCN(c2ccc(NC(=O)c3ccccc3-c3cccnc3)cc2F)CC1 (racemic) [Cmpd (B)]
Ans. -0.60

Qu. Requested field: log10 of IC50. Item: CCNC(=O)C(c1ccccc1)N1CCN(c2ccc(NC(=O)c3ccccc3-c3cccnc3)cc2F)CC1 (single isomer, unassigned; (-)) [(−)-Cmpd (B)]
Ans. -0.40

Qu. Requested field: log10 of IC50. Item: CCN(CC)C(=O)C(c1ccccc1)N1CCN(c2ccc(NC(=O)c3ccccc3-c3cccnc3)cc2F)CC1 (single isomer, unassigned; (-)) [(−)-Cmpd (A)]
Ans. 0.80

Where do the numbers come from? From patent US8338426B2.
